Reference source: BigSolDB 2.1

- TEST PARAMETERS: in acetonitrile, 308.15 K
READOUT KIND: solubility (mole fraction)
Give a plain numeric answer without units written out.

Lookup: For `Cc1cc(N)n(-c2ccccc2)n1` , write its solubility (mole fraction).
Found: 0.198

###

- TEST PARAMETERS: in ethanol, 308.15 K
READOUT KIND: solubility (mole fraction)
Reply briefly: the number, and no unit.

Lookup: Provide only the value of recorded solubility (mole fraction) for `Cc1cc(N)n(-c2ccccc2)n1`
Found: 0.132

###

- TEST PARAMETERS: in methanol, 315.65 K
READOUT KIND: solubility (mole fraction)
When you answer, write just the number.

Lookup: Supply solubility (mole fraction) value. Item: `Cc1cc(N)n(-c2ccccc2)n1`
Found: 0.162
